Quick list: IC50 per entry.
measured-target: c-Abl (His-tagged recombinant human ABL1) (Homo sapiens (Human))
Sequence (P00519 whole entry): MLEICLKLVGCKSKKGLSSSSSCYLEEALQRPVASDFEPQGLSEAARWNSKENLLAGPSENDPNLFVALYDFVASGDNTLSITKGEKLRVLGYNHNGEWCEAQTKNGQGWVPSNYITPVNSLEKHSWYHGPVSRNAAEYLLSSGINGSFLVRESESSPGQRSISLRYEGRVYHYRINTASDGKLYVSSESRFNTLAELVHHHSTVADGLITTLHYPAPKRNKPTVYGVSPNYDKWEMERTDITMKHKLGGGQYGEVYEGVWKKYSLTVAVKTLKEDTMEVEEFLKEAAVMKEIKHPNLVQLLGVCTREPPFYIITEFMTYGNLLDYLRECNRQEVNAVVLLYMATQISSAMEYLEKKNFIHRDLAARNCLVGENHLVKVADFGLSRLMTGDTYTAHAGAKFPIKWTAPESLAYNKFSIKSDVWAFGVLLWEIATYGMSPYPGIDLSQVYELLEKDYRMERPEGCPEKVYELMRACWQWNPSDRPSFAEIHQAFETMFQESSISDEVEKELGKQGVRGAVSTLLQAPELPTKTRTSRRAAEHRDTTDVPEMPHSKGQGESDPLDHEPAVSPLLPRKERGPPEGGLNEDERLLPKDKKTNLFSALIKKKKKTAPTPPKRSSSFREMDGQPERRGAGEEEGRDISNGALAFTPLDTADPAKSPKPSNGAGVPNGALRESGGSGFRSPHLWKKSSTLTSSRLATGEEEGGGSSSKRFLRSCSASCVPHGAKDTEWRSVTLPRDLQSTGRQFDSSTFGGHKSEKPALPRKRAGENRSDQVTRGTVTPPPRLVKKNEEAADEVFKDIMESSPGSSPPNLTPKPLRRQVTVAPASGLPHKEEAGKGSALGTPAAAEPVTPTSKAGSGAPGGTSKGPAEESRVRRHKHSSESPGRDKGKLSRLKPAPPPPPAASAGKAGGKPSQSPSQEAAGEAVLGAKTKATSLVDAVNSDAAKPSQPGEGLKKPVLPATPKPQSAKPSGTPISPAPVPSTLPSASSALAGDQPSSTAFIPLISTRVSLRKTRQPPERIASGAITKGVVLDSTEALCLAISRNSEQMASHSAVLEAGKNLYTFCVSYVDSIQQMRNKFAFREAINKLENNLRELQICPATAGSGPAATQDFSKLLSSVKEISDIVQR
run-description: c-abl Kinase Assay (ADP-Glo)
protocol-conditions: ATP (25 μM), Abltide substrate
Experimental: ADP-Glo assay kit was purchased from Promega. […] c-Abl kinase activity was measured by Promega's ADP-Glo™ Assay. […] Luminescence was detected after 30-min room temperature incubation with the Molecular device I3X plate reader. The IC50 values were calculated from a series of percent inhibition values determined at a range of inhibitor concentration using software routines as implemented in the GraphPad Prism 7 software and Sigma Plot 13.0.
Structures can show the parent of a compound that is named as a salt.
reported-metric: IC50

{"compound": "O=C(Nc1cn2cc(-c3ccccc3C(F)(F)F)ccc2n1)[C@@H]1C[C@@H]1F [Example 96]", "recorded-value": "10 to 100 nM"}
{"compound": "N#Cc1c(F)cccc1-c1ccc2nc(NC(=O)[C@@H]3C[C@@H]3F)cn2c1 [Example 60]", "recorded-value": "10 to 100 nM"}
{"compound": "Cc1ccnc(F)c1-c1ccc2nc(NC(=O)[C@@H]3C[C@@H]3F)cn2c1 [Example 47]", "recorded-value": "10 to 100 nM"}
{"compound": "Cc1c(F)cccc1-c1ccc2nc(NC(=O)C3CCC3)cn2c1 [Example 76]", "recorded-value": "10 to 100 nM"}
{"compound": "Cc1c(-c2ccc3nc(NC(=O)[C@@H]4C[C@@H]4F)cn3c2)ccc2ncsc12 [Example 104]", "recorded-value": "< 10 nM"}
{"compound": "Cc1ccc2[nH]ccc2c1-c1ccc2nc(NC(=O)[C@@H]3C[C@@H]3F)cn2c1 [Example 15]", "recorded-value": "< 10 nM"}
{"compound": "Cc1c(Cl)cccc1-c1ccc2nc(NC(=O)[C@@H]3C[C@@H]3F)cn2c1 [Example 30]", "recorded-value": "< 10 nM"}
{"compound": "Cc1c(F)cccc1-c1ccc2nc(NC(=O)[C@@H]3C[C@H]3F)cn2c1 (stereo in doubt) [Example 72]", "recorded-value": "< 10 nM"}
{"compound": "Cc1ccccc1-c1ccc2nc(NC(=O)[C@@H]3C[C@@H]3F)cn2c1 [Example 88]", "recorded-value": "< 10 nM"}
{"compound": "CC(=O)c1c(F)cccc1-c1ccc2nc(NC(=O)[C@@H]3C[C@@H]3F)cn2c1 [Example 68]", "recorded-value": "10 to 100 nM"}
{"compound": "Cc1c(F)ccc(F)c1-c1ccc2nc(NC(=O)[C@@H]3C[C@@H]3F)cn2c1 [Example 45]", "recorded-value": "< 10 nM"}
{"compound": "Cc1ccc2[nH]cnc2c1-c1ccc2nc(NC(=O)[C@@H]3C[C@@H]3F)cn2c1 [Example 100]", "recorded-value": "10 to 100 nM"}
{"compound": "Cc1c(F)cccc1-c1ccc2nc(NC(=O)[C@@H]3C[C@@H]3F)c(Cl)n2c1 [Example 3]", "recorded-value": "10 to 100 nM"}
{"compound": "Cc1cc2ncsc2cc1-c1ccc2nc(NC(=O)[C@@H]3C[C@@H]3F)cn2c1 [Example 103]", "recorded-value": "< 10 nM"}
{"compound": "Cc1c(F)cc(N)cc1-c1ccc2nc(NC(=O)[C@@H]3C[C@@H]3F)cn2c1 [Example 50]", "recorded-value": "< 10 nM"}
{"compound": "Cc1c(-c2ccc3nc(NC(=O)[C@@H]4C[C@@H]4F)cn3c2)cnc2[nH]ccc12 [Example 86]", "recorded-value": "< 10 nM"}
{"compound": "Cc1cccc(Cl)c1-c1ccc2nc(NC(=O)[C@@H]3C[C@@H]3F)cn2c1 [Example 52]", "recorded-value": "< 10 nM"}
{"compound": "Cc1ccc(-c2cc[nH]c2)cc1-c1ccc2nc(NC(=O)[C@@H]3C[C@@H]3F)cn2c1 [Example 40]", "recorded-value": "< 10 nM"}
{"compound": "Cc1c[nH]nc1-c1ccc2nc(NC(=O)[C@@H]3C[C@@H]3F)cn2c1 [Example 19]", "recorded-value": "10 to 100 nM"}
{"compound": "Cc1cc(F)cc(C)c1-c1ccc2nc(NC(=O)[C@@H]3C[C@@H]3F)cn2c1 [Example 38]", "recorded-value": "< 10 nM"}
{"compound": "Cc1c(F)cncc1-c1ccc2nc(NC(=O)[C@@H]3C[C@@H]3F)c(C)n2c1 [Example 10]", "recorded-value": "101 to 1000 nM"}
{"compound": "NCc1c(F)cccc1-c1ccc2nc(NC(=O)[C@@H]3C[C@@H]3F)cn2c1 [Example 74]", "recorded-value": "> 1000 nM"}
{"compound": "O=C(Nc1cn2cc(-c3cc[nH]n3)ccc2n1)[C@@H]1C[C@@H]1F [Example 18]", "recorded-value": "101 to 1000 nM"}
{"compound": "Cc1cc(N)ncc1-c1ccc2nc(NC(=O)[C@@H]3C[C@@H]3F)cn2c1 [Example 49]", "recorded-value": "< 10 nM"}
{"compound": "Cc1c(-c2ccc3nc(NC(=O)[C@@H]4C[C@@H]4F)cn3c2)ccc(Cl)c1F [Example 46]", "recorded-value": "< 10 nM"}
{"compound": "O=C(Nc1cn2cc(-c3cccc(F)c3COCCO)ccc2n1)[C@@H]1C[C@@H]1F [Example 83]", "recorded-value": "101 to 1000 nM"}
{"compound": "Cc1cccc(F)c1-c1ccc2nc(NC(=O)[C@@H]3C[C@@H]3F)cn2c1 [Example 2]", "recorded-value": "< 10 nM"}
{"compound": "O=C(Nc1cn2cc(-c3cccc(F)c3O)ccc2n1)[C@@H]1C[C@@H]1F [Example 89]", "recorded-value": "< 10 nM"}
{"compound": "Cc1cc(N(C)C)ncc1-c1ccc2nc(NC(=O)[C@@H]3C[C@@H]3F)cn2c1 [Example 69]", "recorded-value": "101 to 1000 nM"}
{"compound": "Cc1cc(F)ccc1-c1ccc2nc(NC(=O)[C@@H]3C[C@@H]3F)cn2c1 [Example 39]", "recorded-value": "< 10 nM"}
{"compound": "Cc1ccc(-c2ccc3nc(NC(=O)[C@@H]4C[C@@H]4F)cn3c2)c(C)c1 [Example 32]", "recorded-value": "< 10 nM"}
{"compound": "Cc1ccc2[nH]cc(C)c2c1-c1ccc2nc(NC(=O)[C@@H]3C[C@@H]3F)cn2c1 [Example 63]", "recorded-value": "< 10 nM"}
{"compound": "Cc1c(F)cccc1-c1ccc2nc(NC(=O)[C@@H]3C[C@@H]3F)cn2c1 [Example 1, Hydrochloride]", "recorded-value": "< 10 nM"}
{"compound": "Cc1c(O)cccc1-c1ccc2nc(NC(=O)[C@@H]3C[C@@H]3F)cn2c1 [Example 20]", "recorded-value": "< 10 nM"}

Hello, the source for this data is patent US11098044B2, in case you need it.
